Tested on: LNCaP tumor bearing mice
test-protocol: SPECT/CT scanning, exposure of 177Lu labeled compounds in tumor and tissues
Format: in vivo
measurement-context: labeled with 177Lu; about 7.4 MBq (200 μCi) tail vein; scans 1-72 h
A collection of compounds and their measured Exposure in Kidney
Form entry: value (h*ID %/g) — number only.

Kindly note the recorded Exposure in Kidney for COc1ccc(CCCC(=O)NC(CCCNC(=N)N)C(=O)N[C@@H](CCCCNC(=O)CN2CCN(CC(=O)O)CCN(CC(=O)O)CCN(CC(=O)O)CC2)C(=O)NCC2CCC(C(=O)N[C@@H](Cc3ccc4ccccc4c3)C(=O)NCCCC[C@H](NC(=O)N[C@@H](CCC(=O)O)C(=O)O)C(=O)O)CC2)cc1 (stereo partly shown) , which is 206

Record COc1ccc(CCCC(=O)NC(Cc2c[nH]cn2)C(=O)N[C@@H](CCCCNC(=O)CN2CCN(CC(=O)O)CCN(CC(=O)O)CCN(CC(=O)O)CC2)C(=O)NCC2CCC(C(=O)N[C@@H](Cc3ccc4ccccc4c3)C(=O)NCCCC[C@H](NC(=O)N[C@@H](CCC(=O)O)C(=O)O)C(=O)O)CC2)cc1 (stereo partly shown) . Reported Exposure in Kidney: 330.5

The compound COc1ccc(C(=O)NCCN2CCN(C(=O)CCC(=O)N[C@@H](CCCCNC(=O)CN3CCN(CC(=O)O)CCN(CC(=O)O)CCN(CC(=O)O)CC3)C(=O)NCC3CCC(C(=O)N[C@@H](Cc4ccc5ccccc5c4)C(=O)NCCCC[C@H](NC(=O)N[C@@H](CCC(=O)O)C(=O)O)C(=O)O)CC3)CC2)cc1 (stereo partly shown) showed Exposure in Kidney equal to 79.78

Per the records, this compound ( O=C(O)CCCCCCCCCCCCCCC(=O)N[C@@H](CCCCNC(=O)CN1CCN(CC(=O)O)CCN(CC(=O)O)CCN(CC(=O)O)CC1)C(=O)NCC1CCC(C(=O)N[C@@H](Cc2ccc3ccccc3c2)C(=O)NCCCC[C@H](NC(=O)N[C@@H](CCC(=O)O)C(=O)O)C(=O)O)CC1 (stereo partly shown) ) has Exposure in Kidney equal to 669.2

---

System: LNCaP tumor bearing mice
test-protocol: SPECT/CT scanning, exposure of 177Lu labeled compounds in tumor and tissues
Type: in vivo
measurement-context: labeled with 177Lu; about 7.4 MBq (200 μCi) tail vein; scans 1-72 h
metric-name: Exposure in Bladder (h*ID %/g)
I only need the number, in h*ID %/g, no unit after it.

Observed Exposure in Bladder, LNCaP tumor bearing mice, COc1ccc(CCCC(=O)NC(CCCNC(=N)N)C(=O)N[C@@H](CCCCNC(=O)CN2CCN(CC(=O)O)CCN(CC(=O)O)CCN(CC(=O)O)CC2)C(=O)NCC2CCC(C(=O)N[C@@H](Cc3ccc4ccccc4c3)C(=O)NCCCC[C@H](NC(=O)N[C@@H](CCC(=O)O)C(=O)O)C(=O)O)CC2)cc1 (stereo partly shown) : 310.2

Tested on LNCaP tumor bearing mice, the item COc1ccc(CCCC(=O)NC(CCC(N)=O)C(=O)N[C@@H](CCCCNC(=O)CN2CCN(CC(=O)O)CCN(CC(=O)O)CCN(CC(=O)O)CC2)C(=O)NCC2CCC(C(=O)N[C@@H](Cc3ccc4ccccc4c3)C(=O)NCCCC[C@H](NC(=O)N[C@@H](CCC(=O)O)C(=O)O)C(=O)O)CC2)cc1 (stereo partly shown) showed Exposure in Bladder equal to 710.2

Lab entry: LNCaP tumor bearing mice assay, compound `COc1ccc(C(=O)NCCN2CCN(C(=O)CCC(=O)N[C@@H](CCCCNC(=O)CN3CCN(CC(=O)O)CCN(CC(=O)O)CCN(CC(=O)O)CC3)C(=O)N3CCc4cc(C(=O)N[C@@H](Cc5ccc6ccccc6c5)C(=O)NCCCC[C@H](NC(=O)N[C@@H](CCC(=O)O)C(=O)O)C(=O)O)ccc4C3)CC2)cc1` , Exposure in Bladder = 499.3

Please look at the following compound next.
Entry COc1ccc(C(=O)N[C@@H](CCCCNC(=O)CN2CCN(CC(=O)O)CCN(CC(=O)O)CCN(CC(=O)O)CC2)C(=O)NCC2CCC(C(=O)N[C@@H](Cc3ccc4ccccc4c3)C(=O)NCCCC[C@H](NC(=O)N[C@@H](CCC(=O)O)C(=O)O)C(=O)O)CC2)cc1 (stereo partly shown) , tested on LNCaP tumor bearing mice, has a reported Exposure in Bladder of 831.9

---

Test system: LNCaP tumor bearing mice
test-protocol: SPECT/CT scanning, exposure of 177Lu labeled compounds in tumor and tissues
Format: in vivo
measurement-context: labeled with 177Lu; about 7.4 MBq (200 μCi) tail vein; scans 1-72 h
Form field: Exposure in Lung (one value per entry).
Lab book: enter the figure in h*ID %/g, no units written.

Consider the reported Exposure in Lung for these compounds:
Measured Exposure in Lung of O=C(O)CCCCCCCCCCCCC(=O)N[C@@H](CCCCNC(=O)CN1CCN(CC(=O)O)CCN(CC(=O)O)CCN(CC(=O)O)CC1)C(=O)NCC1CCC(C(=O)N[C@@H](Cc2ccc3ccccc3c2)C(=O)NCCCC[C@H](NC(=O)N[C@@H](CCC(=O)O)C(=O)O)C(=O)O)CC1 (stereo partly shown) [PSMA-G] : 86.51

For record O=C(O)CCCCCCCCCCCCCCC(=O)N[C@@H](CCCCNC(=O)CN1CCN(CC(=O)O)CCN(CC(=O)O)CCN(CC(=O)O)CC1)C(=O)NCC1CCC(C(=O)N[C@@H](Cc2ccc3ccccc3c2)C(=O)NCCCC[C@H](NC(=O)N[C@@H](CCC(=O)O)C(=O)O)C(=O)O)CC1 (stereo partly shown) [PSMA-F] the listed Exposure in Lung is 348.3

Form field Exposure in Lung, entry COc1ccc(CCCC(=O)NC(CCCNC(=N)N)C(=O)N[C@@H](CCCCNC(=O)CN2CCN(CC(=O)O)CCN(CC(=O)O)CCN(CC(=O)O)CC2)C(=O)NCC2CCC(C(=O)N[C@@H](Cc3ccc4ccccc4c3)C(=O)NCCCC[C@H](NC(=O)N[C@@H](CCC(=O)O)C(=O)O)C(=O)O)CC2)cc1 (stereo partly shown) [PSMA-A] : 35.49

With those in mind, consider the next compound.
Looking up COc1ccc(C(=O)NCCN2CCN(C(=O)CCC(=O)N[C@@H](CCCCNC(=O)CN3CCN(CC(=O)O)CCN(CC(=O)O)CCN(CC(=O)O)CC3)C(=O)NCC3CCC(C(=O)N[C@@H](Cc4ccc5ccccc5c4)C(=O)NCCCC[C@H](NC(=O)N[C@@H](CCC(=O)O)C(=O)O)C(=O)O)CC3)CC2)cc1 (stereo partly shown) [PSMA-K] , I found its Exposure in Lung recorded as 278.5

---

Test system: LNCaP tumor bearing mice
test-protocol: SPECT/CT scanning, exposure of 177Lu labeled compounds in tumor and tissues
Format: in vivo
measurement-context: labeled with 177Lu; about 7.4 MBq (200 μCi) tail vein; scans 1-72 h
In this section, each of the compounds is paired with its reported Exposure in Bladder.
Respond numerically; units are h*ID %/g and should not be typed.

For O=C(O)CC[C@H](NC(=O)N[C@@H](CCCCNC(=O)[C@H](Cc1ccc2ccccc2c1)NC(=O)[C@H]1CC[C@H](CNC(=O)CN2CCN(CC(=O)O)CCN(CC(=O)O)CCN(CC(=O)O)CC2)CC1)C(=O)O)C(=O)O [PSMA-617, reference compound] the compound record lists Exposure in Bladder as 553.2

Note to self: Exposure in Bladder recorded for COc1ccc(CCCC(=O)NC(Cc2c[nH]cn2)C(=O)N[C@@H](CCCCNC(=O)CN2CCN(CC(=O)O)CCN(CC(=O)O)CCN(CC(=O)O)CC2)C(=O)NCC2CCC(C(=O)N[C@@H](Cc3ccc4ccccc4c3)C(=O)NCCCC[C@H](NC(=O)N[C@@H](CCC(=O)O)C(=O)O)C(=O)O)CC2)cc1 (stereo partly shown) [PSMA-B] was 157.3

Input COc1ccc(C(=O)NCCN2CCN(C(=O)CCC(=O)N[C@@H](CCCCNC(=O)CN3CCN(CC(=O)O)CCN(CC(=O)O)CCN(CC(=O)O)CC3)C(=O)NCC3CCC(C(=O)N[C@@H](Cc4ccc5ccccc5c4)C(=O)NCCCC[C@H](NC(=O)N[C@@H](CCC(=O)O)C(=O)O)C(=O)O)CC3)CC2)cc1 (stereo partly shown) [PSMA-K] . Output Exposure in Bladder: 585.9

Briefly, Exposure in Bladder measured for O=C(O)CCCCCCCCCCC(=O)N[C@@H](CCCCNC(=O)CN1CCN(CC(=O)O)CCN(CC(=O)O)CCN(CC(=O)O)CC1)C(=O)NCC1CCC(C(=O)N[C@@H](Cc2ccc3ccccc3c2)C(=O)NCCCC[C@H](NC(=O)N[C@@H](CCC(=O)O)C(=O)O)C(=O)O)CC1 (stereo partly shown) [PSMA-H] : 1135

Reported Exposure in Bladder for O=C(O)CCCCCCCCCCCCCCC(=O)N[C@@H](CCCCNC(=O)CN1CCN(CC(=O)O)CCN(CC(=O)O)CCN(CC(=O)O)CC1)C(=O)NCC1CCC(C(=O)N[C@@H](Cc2ccc3ccccc3c2)C(=O)NCCCC[C@H](NC(=O)N[C@@H](CCC(=O)O)C(=O)O)C(=O)O)CC1 (stereo partly shown) [PSMA-F] was 633.7

Recorded Exposure in Bladder (compound COc1ccc(CCCC(=O)NC(CCCCN)C(=O)N[C@@H](CCCCNC(=O)CN2CCN(CC(=O)O)CCN(CC(=O)O)CCN(CC(=O)O)CC2)C(=O)NCC2CCC(C(=O)N[C@@H](Cc3ccc4ccccc4c3)C(=O)NCCCC[C@H](NC(=O)N[C@@H](CCC(=O)O)C(=O)O)C(=O)O)CC2)cc1 (stereo partly shown) [PSMA-C] ): 100.8

New cases:
Exposure in Bladder measured on O=C(O)CCCCCCCCCCCCC(=O)N[C@@H](CCCCNC(=O)CN1CCN(CC(=O)O)CCN(CC(=O)O)CCN(CC(=O)O)CC1)C(=O)NCC1CCC(C(=O)N[C@@H](Cc2ccc3ccccc3c2)C(=O)NCCCC[C@H](NC(=O)N[C@@H](CCC(=O)O)C(=O)O)C(=O)O)CC1 (stereo partly shown) [PSMA-G] = 935.9
